Data origin: patent US20140274782A1

System: 3×MBT domain of L3MBTL1
experiment description: Triple SILAC pull-down, 3xMBT/3xMBTD355N ratio (cytoplasmic, nuclear and chromatin fractions of 293T cells);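 further: proteins quantified with MaxQuant, requiring at least two unique peptides and quantification in both label directions, normalized to the mean of proteins from a digested loading control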
Type: binding, human
conditions used: SILAC ratio 3xMBT vs 3xMBTD355N pull-down, 293T cells; experiment with UNC0638 in heavy SILAC media; all values in log base 2
Threshold check on 3xMBT/D355N UNC Heavy: at or above 2 log base 2 gives yes, strictly below gives no.

>  <molecule>
UBXN1 (protein, UniProt Q04323 2-297, looked up) UBX domain-containing protein …: AELTALESLIEMGFPRGRAEKALALTGNQGIEAAMDWLMEHEDDPDVDEPLETPLGHILGREPTSSEQGGLEGSGSAAGEGKPALSEEERQEQTKRMLELVAQKQREREEREEREALERERQRRRQGQELSAARQRLQEDEMRRAAEERRREKAEELAARQRVREKIERDKAERAKKYGGSVGSQPPPVAPEPGPVPSSPSQEPPTKREYDQCRIQVRLPDGTSLTQTFRAREQLAAVRLYVELHRGEELGGGQDPVQLLSGFPRRAFSEADMERPLQELGLVPSAVLIVAKKCPS

>  <class assignment>
no

$$$$
>  <molecule>
SNRNP40 (protein, UniProt Q96DI7 1-357, looked up) U5 small nuclear …: MIEQQKRKGPELPLVPVKRQRHELLLGAGSGPGAGQQQATPGALLQAGPPRCSSLQAPIMLLSGHEGEVYCCKFHPNGSTLASAGFDRLILLWNVYGDCDNYATLKGHSGAVMELHYNTDGSMLFSASTDKTVAVWDSETGERVKRLKGHTSFVNSCYPARRGPQLVCTGSDDGTVKLWDIRKKAAIQTFQNTYQVLAVTFNDTSDQIISGGIDNDIKVWDLRQNKLTYTMRGHADSVTGLSLSSEGSYLLSNAMDNTVRVWDVRPFAPKERCVKIFQGNVHNFEKNLLRCSWSPDGSKIAAGSADRFVYVWDTTSRRILYKLPGHAGSINEVAFHPDEPIIISASSDKRLYMGEIQ

>  <class assignment>
yes

$$$$
>  <molecule>
PRDX1 (protein, UniProt Q06830 2-199, looked up) Peroxiredoxin-1: SSGNAKIGHPAPNFKATAVMPDGQFKDISLSDYKGKYVVFFFYPLDFTFVCPTEIIAFSDRAEEFKKLNCQVIGASVDSHFCHLAWVNTPKKQGGLGPMNIPLVSDPKRTIAQDYGVLKADEGISFRGLFIIDDKGILRQITVNDLPVGRSVDETLRLVQAFQFTDKHGEVCPAGWKPGSDTIKPDVQKSKEYFSKQK

>  <class assignment>
no

$$$$
>  <molecule>
ZRANB2 (protein, UniProt O95218 1-330, looked up) Zinc finger Ran-binding …: MSTKNFRVSDGDWICPDKKCGNVNFARRTSCNRCGREKTTEAKMMKAGGTEIGKTLAEKSRGLFSANDWQCKTCSNVNWARRSECNMCNTPKYAKLEERTGYGGGFNERENVEYIEREESDGEYDEFGRKKKKYRGKAVGPASILKEVEDKESEGEEEDEDEDLSKYKLDEDEDEDDADLSKYNLDASEEEDSNKKKSNRRSRSKSRSSHSRSSSRSSSPSSSRSRSRSRSRSSSSSQSRSRSSSRERSRSRGSKSRSSSRSHRGSSSPRKRSYSSSSSSPERNRKRSRSRSSSSGDRKKRRTRSRSPERRHRSSSGSSHSGSRSSSKKK

>  <class assignment>
no

$$$$
>  <molecule>
CGGBP1 (protein, UniProt Q9UFW8 1-167, looked up) CGG triplet repeat-binding …: MERFVVTAPPARNRSKTALYVTPLDRVTEFGGELHEDGGKLFCTSCNVVLNHVRKSAISDHLKSKTHTKRKAEFEEQNVRKKQRPLTASLQCNSTAQTEKVSVIQDFVKMCLEANIPLEKADHPAVRAFLSRHVKNGGSIPKSDQLRRAYLPDGYENENQLLNSQDC

>  <class assignment>
yes

$$$$
